Overview of reported GI50 across a group of molecules:
Test system: M14
testDetails: NCI tumour cell line growth inhibition, 48 h
Activity calls are given as the source filed them. No stated cut-off is given here; in the data, active = GI50 up to about 1.1 µM and inactive = higher.

molecule=O=C(NNC(=S)Nc1ccccc1)C12CC3CC(CC(C3)C1)C2 subjectoftest=M14 recordedmeasurement="13.8 µM (inactive)"
molecule="OCC12C3C4C5C3C1C5C42 (stereo not drawn)" subjectoftest=M14 recordedmeasurement="> 100 µM (inactive)"
molecule="C=C1CC(COc2ccc3c(C)c(C)c(=O)oc3c2C)(c2ccccc2)OC1=O (stereo not drawn)" subjectoftest=M14 recordedmeasurement="1.57 µM (inactive)"
molecule=C[C@]12CC[C@H](O)CC1=CC[C@@H]1[C@@H]2CC[C@]2(C)C(=N/O)/C(=C/c3ccc([N+](=O)[O-])cc3)C[C@@H]12 subjectoftest=M14 recordedmeasurement="6.75 µM (inactive)"
molecule=Cc1ccc(/C=C/C(=O)c2c([O-])on[n+]2-c2ccccc2)cc1 subjectoftest=M14 recordedmeasurement="2.34 µM (inactive)"

Q: Please report the recorded GI50 for COc1ccc(CCn2cncn2)cc1 .
Result: > 100 µM (inactive)

Q: Name the recorded GI50 for Cc1c(/C=N/NC(=S)Nc2ccc([N+](=O)[O-])cc2)c(=O)n(-c2ccccc2)n1C .
Result: 11.2 µM (inactive)

Q: Item under review: CC(=O)C1=C(C)O[C@@H]2O[C@H](COCc3ccccc3)[C@@H](OCc3ccccc3)[C@H](O)[C@@H]2S1 . Reported GI50?
Result: 20.4 µM (inactive)
